- Experimental System: SUMO E1 (Homo sapiens)
- Protocol Details: SUMO E1 inhibition: UBC9-SUMO1 conjugation by SDS gel electrophoresis
- Assay type: biochemical
- Conditions: 25 uM compound, 60 min preincubation; read-out: SUMO E1 percent inhibition of adduct formation
Experimental Endpoint: inhibition at 25 µM

C=CC(=O)N1Cc2ccc(CCO)cc2[C@@H](c2ccccc2)C1 : < 1%
C=CC(=O)N1CCc2cc(Cc3ccc(OC)cc3)ccc2C1 : < 1%

Return inhibition at 25 µM for the following molecule: C=CC(=O)N1CCCc2cc(Br)ccc21
< 1%

Please list inhibition at 25 µM recorded for the molecule C=CC(=O)N1Cc2c(C)cc(Br)cc2[C@@H](c2ccccc2)C1
< 1%

Report inhibition at 25 µM, nothing else, for this molecule: C=CC(=O)N1Cc2cc(OC)ccc2[C@@H](c2ccc(Cl)cc2)C1
< 1%

For C=CC(=O)N1Cc2ccc(NC(=O)c3ccc(F)cc3)cc2C1 , write its inhibition at 25 µM.
< 1%

Item C=CC(=O)N1Cc2cccc(Br)c2[C@@H](c2ccccc2OC)C1 : provide inhibition at 25 µM
20%

----------
- Experimental System: SUMO E1 (Homo sapiens)
- Protocol Details: SUMO E1 inhibition: UBC9-SUMO1 conjugation by SDS gel electrophoresis
- Format: biochemical
- Conditions: 1 uM compound, 30 min preincubation; read-out: SUMO E1 percent inhibition of adduct formation
Experimental Endpoint: inhibition at 1 µM (%)
Kindly answer with a numeric value in %, unit omitted.

Solved entries:
C=CC(=O)N1Cc2sc(Cl)cc2[C@@H](c2cccc(C)c2C)C1 [Compound 149] : 90
O=C(/C=C/C(F)(F)F)N1Cc2sc(Cl)cc2[C@@H](c2ccccc2CC2CCOCC2)C1 [Compound 141] : 50
O=C(/C=C/C(F)(F)F)N1Cc2sc(Cl)cc2[C@@H](c2ccccc2F)C1 [Compound 120] : 100

Lab note: next compound to report on.
Recall the reported inhibition at 1 µM of Cc1ccccc1[C@H]1CN(C(=O)/C=C/C(F)F)Cc2sc(Cl)cc21 [Compound 122] on SUMO E1 (Homo sapiens) and write it down.
100

----------
- Experimental System: SUMO E1 (Homo sapiens)
- Protocol Details: SUMO E1 inhibition: UBC9-SUMO1 conjugation by SDS gel electrophoresis
- Type: biochemical
- Conditions: 1 uM compound, 30 min preincubation; read-out: SUMO E1 percent inhibition of adduct formation
Property: inhibition at 1 µM; scope: individual molecules
Entry rule: numbers only, all in %.

C=CC(=O)N1Cc2sc(Cl)cc2[C@@H](C2CCCCC2)C1 [Compound 124] : 100
C=CC(=O)N1Cc2sc(Cl)cc2[C@@H](c2ccccc2-c2ccccc2)C1 [Compound 133] : 95
C=CC(=O)N1Cc2sc(Cl)cc2[C@@H](c2ccccc2Br)C1 [Compound 113] : 95
C=CC(=O)N1Cc2sc(Cl)cc2[C@@H](c2ccccc2F)C1 [Compound 114] : 100

Tell us which inhibition at 1 µM value is on record for Cc1ccccc1[C@H]1CN(C(=O)/C=C/C(F)(F)F)Cc2sc(Cl)cc21 [Compound 108]
100

----------
- Experimental System: UniProt Q9UBT2
- Sequence (Q9UBT2 1-640): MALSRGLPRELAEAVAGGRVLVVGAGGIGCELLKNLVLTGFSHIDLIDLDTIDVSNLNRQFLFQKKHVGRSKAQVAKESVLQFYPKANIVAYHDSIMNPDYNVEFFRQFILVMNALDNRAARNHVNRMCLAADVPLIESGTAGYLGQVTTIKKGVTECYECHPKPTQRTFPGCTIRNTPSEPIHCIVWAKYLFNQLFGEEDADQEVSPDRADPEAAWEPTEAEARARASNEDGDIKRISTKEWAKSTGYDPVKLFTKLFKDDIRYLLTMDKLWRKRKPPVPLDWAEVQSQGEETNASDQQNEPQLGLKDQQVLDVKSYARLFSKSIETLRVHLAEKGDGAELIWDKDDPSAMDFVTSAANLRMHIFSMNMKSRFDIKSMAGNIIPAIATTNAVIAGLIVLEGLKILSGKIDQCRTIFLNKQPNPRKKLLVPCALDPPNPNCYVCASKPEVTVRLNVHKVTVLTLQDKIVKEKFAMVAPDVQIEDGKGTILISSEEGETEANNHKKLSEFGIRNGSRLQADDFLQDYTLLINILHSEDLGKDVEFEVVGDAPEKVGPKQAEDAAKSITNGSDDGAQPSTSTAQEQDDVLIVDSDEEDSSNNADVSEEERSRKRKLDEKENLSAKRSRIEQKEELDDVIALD
- Sequence (Q9UBE0 1-346 partner): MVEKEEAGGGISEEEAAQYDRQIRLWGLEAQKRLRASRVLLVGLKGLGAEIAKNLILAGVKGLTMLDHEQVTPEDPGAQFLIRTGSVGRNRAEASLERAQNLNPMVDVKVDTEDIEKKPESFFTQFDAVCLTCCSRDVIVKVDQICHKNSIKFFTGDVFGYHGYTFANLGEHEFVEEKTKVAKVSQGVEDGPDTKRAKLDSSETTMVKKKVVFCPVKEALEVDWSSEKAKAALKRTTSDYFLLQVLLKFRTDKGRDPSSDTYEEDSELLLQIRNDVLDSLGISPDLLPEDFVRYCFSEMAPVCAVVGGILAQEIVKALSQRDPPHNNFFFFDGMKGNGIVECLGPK
- Protocol Details: SUMO E1 inhibition: UBC9-SUMO1 conjugation by SDS gel electrophoresis
- Type: biochemical
- Conditions: 10 uM compound, 30 min preincubation; read-out: SUMO E1 percent inhibition of adduct formation
Experimental Endpoint: inhibition at 10 µM

// solved cases for inhibition at 10 µM follow
C=CC(=O)N1Cc2oc(C)cc2[C@@H](c2ccccc2)C1 : < 1%
C=CC(=O)N1Cc2sc(C)cc2[C@@H](c2ccccc2)C1 : 30%

In one line, give reported inhibition at 10 µM of the entry C=CC(=O)N1Cc2sc(CC)cc2[C@@H](c2ccccc2)C1 .
10%

Recall and state the measured inhibition at 10 µM for C=CC(=O)N1Cc2cc(C)ccc2[C@@H](c2ccccc2C)C1 .
100%

Note down inhibition at 10 µM recorded for C=CC(=O)N1Cc2cccc(C)c2[C@@H](c2ccccc2C)C1
< 1%
